# System: LdcCA (Leishmania infantum, UniProt A4HSV2)
# Sequence (A4HSV2 1-306): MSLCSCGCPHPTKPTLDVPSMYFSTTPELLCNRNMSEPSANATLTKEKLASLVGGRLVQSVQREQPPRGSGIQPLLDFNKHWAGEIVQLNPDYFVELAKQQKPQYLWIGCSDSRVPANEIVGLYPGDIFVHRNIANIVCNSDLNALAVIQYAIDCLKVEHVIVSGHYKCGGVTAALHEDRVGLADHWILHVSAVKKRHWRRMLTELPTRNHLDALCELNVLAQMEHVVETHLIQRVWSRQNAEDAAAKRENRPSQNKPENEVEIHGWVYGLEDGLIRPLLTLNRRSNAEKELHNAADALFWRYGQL
# Procedure text: biochemical
# Stated conditions: read-out: KI LdCA
Value type: pKi
Numbers only, as −log10 of the molar value.

A selection of reference data follows.
COc1cccc(NC(=O)Nc2cc(S(N)(=O)=O)cc([N+](=O)[O-])c2O)c1 [Compound 18] | 6.02
NS(=O)(=O)c1cc(NC(=O)Nc2ccc3c(c2)OCO3)c(O)c([N+](=O)[O-])c1 [Compound 19] | 5.69
NS(=O)(=O)c1cc(NC(=O)c2ccccc2)c(OC(=O)c2ccccc2)c([N+](=O)[O-])c1 [Compound 9] | 5.41

Can you look up the measured pKi of NS(=O)(=O)c1ccc(O)c([N+](=O)[O-])c1 [Compound 4] for me? 6.68

----------
Give pKi for every item shown.
# System: UniProtKB A4HSV2
# Procedure text: biochemical
# Stated conditions: read-out: KI LdCA
One number for each entry, as −log10 of the molar value.

A selection of reference data follows.
Cc1cc(C)[n+](-c2cc(S(N)(=O)=O)cc([N+](=O)[O-])c2O)c(C)c1 | 5.18
NS(=O)(=O)c1cc(NC(=O)N[C@@H]2C(O)O[C@@H](CO)[C@H](O)[C@H]2O)c(O)c([N+](=O)[O-])c1 (stereo partly shown) | 5.53
NS(=O)(=O)c1cc(O)c(O)c([N+](=O)[O-])c1 | 6.41

Please state pKi for every molecule in the list that follows.
1. NS(=O)(=O)c1cc(NC(=O)Nc2cc(C(F)(F)F)cc(C(F)(F)F)c2)c(O)c([N+](=O)[O-])c1
2. Cc1cc(NC(=O)Nc2cc(S(N)(=O)=O)cc([N+](=O)[O-])c2O)ccc1F
3. CC(=O)OC[C@@H]1O[C@@H](OC(C)=O)[C@@H](NC(=O)Nc2cc(S(N)(=O)=O)cc([N+](=O)[O-])c2O)[C@H](OC(C)=O)[C@H]1OC(C)=O
4. NS(=O)(=O)c1cc(NC(=O)c2ccc(F)cc2)c(OC(=O)c2ccc(F)cc2)c([N+](=O)[O-])c1

5.44
5.53
5.44
5.07

----------
# System: hCA I (Homo sapiens)
# Sequence (P00915 whole entry): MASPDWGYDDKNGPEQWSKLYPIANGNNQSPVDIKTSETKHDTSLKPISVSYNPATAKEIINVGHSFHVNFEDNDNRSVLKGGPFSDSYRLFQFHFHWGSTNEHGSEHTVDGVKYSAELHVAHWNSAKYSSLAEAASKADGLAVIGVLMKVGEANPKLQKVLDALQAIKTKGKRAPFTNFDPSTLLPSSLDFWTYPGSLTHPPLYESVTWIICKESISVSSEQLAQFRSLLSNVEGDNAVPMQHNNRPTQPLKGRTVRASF
# Procedure text: stopped flow CO2 hydrase assay, hCA I inhibition
pKi: −log10 of the molar value.
Value type: pKi

Can you look up the measured pKi of "Cc1cc(C)[n+](-c2cc(S(N)(=O)=O)cc([N+](=O)[O-])c2O)c(C)c1" for me? < 4.30

----------
# System: LdcCA (Leishmania infantum)
# Procedure text: biochemical
Value type: SI (KI1/KI2) CA II/LdcCA
Give bare numbers.

NS(=O)(=O)c1cc(O)c(O)c([N+](=O)[O-])c1 [Compound 12] | 1.6
NS(=O)(=O)c1cc(NC(=O)NCCc2ccccc2)c(O)c([N+](=O)[O-])c1 [Compound 22] | 3.6
Nc1cc(S(N)(=O)=O)cc([N+](=O)[O-])c1O [Compound 8] | 1.3
NS(=O)(=O)c1cc(NC(=O)Nc2cc(C(F)(F)F)cc(C(F)(F)F)c2)c(O)c([N+](=O)[O-])c1 [Compound 21] | 0.5
NS(=O)(=O)c1cc(NC(=O)Nc2c(F)c(F)c(F)c(F)c2F)c(O)c([N+](=O)[O-])c1 [Compound 17] | 0.2

Please state SI (KI1/KI2) CA II/LdcCA for every compound in the list that follows.
1. NS(=O)(=O)c1cc([N+](=O)[O-])c(OC(=O)c2ccccc2)c([N+](=O)[O-])c1 [Compound 7]
2. NS(=O)(=O)c1cc(NC(=O)NCc2ccco2)c(O)c([N+](=O)[O-])c1 [Compound 23]
3. NS(=O)(=O)c1cc(NC(=O)Nc2ccc3c(c2)OCO3)c(O)c([N+](=O)[O-])c1 [Compound 19]

[0.2, 2.5, 2.1]

----------
# System: UniProt P00915
# Procedure text: stopped flow CO2 hydrase assay, hCA I inhibition
# Stated conditions: read-out: KI hCA I; stopped flow CO2 hydrase assay, mean from three assays
Give Ki for every item shown.
Answers are plain numbers, in µM.

Please state Ki for every compound in the list that follows.
1. Cc1cc(NC(=O)Nc2cc(S(N)(=O)=O)cc([N+](=O)[O-])c2O)ccc1F
2. NS(=O)(=O)c1cc(NC(=O)Nc2ccc(F)cc2)c(O)c([N+](=O)[O-])c1
3. CC(=O)OC[C@@H]1O[C@@H](OC(C)=O)[C@@H](NC(=O)Nc2cc(S(N)(=O)=O)cc([N+](=O)[O-])c2O)[C@H](OC(C)=O)[C@H]1OC(C)=O
4. NS(=O)(=O)c1cc(O)c(O)c([N+](=O)[O-])c1
5. NS(=O)(=O)c1cc([N+](=O)[O-])c(OC(=O)c2ccccc2)c([N+](=O)[O-])c1
6. NS(=O)(=O)c1cc(NC(=O)Nc2c(F)c(F)c(F)c(F)c2F)c(O)c([N+](=O)[O-])c1
7. NS(=O)(=O)c1cc(NC(=O)Nc2cc(C(F)(F)F)cc(C(F)(F)F)c2)c(O)c([N+](=O)[O-])c1

[7.58, 5.39, 5.67, 6.21, 4.79, 0.69, 5.99]

----------
# System: LdcCA (Leishmania infantum, UniProt A4HSV2)
# Procedure text: biochemical
Value type: SI (KI1/KI2) CA II/LdcCA
Numbers only.

A selection of reference data follows.
NS(=O)(=O)c1cc(NC(=O)Nc2ccccc2)c(O)c([N+](=O)[O-])c1 | 2.6
NS(=O)(=O)c1cc(NC(=O)c2ccc(F)cc2)c(OC(=O)c2ccc(F)cc2)c([N+](=O)[O-])c1 | 0.1
Cc1cc(NC(=O)Nc2cc(S(N)(=O)=O)cc([N+](=O)[O-])c2O)ccc1F | 0.1
Cc1cc(C)cc(NC(=O)Nc2cc(S(N)(=O)=O)cc([N+](=O)[O-])c2O)c1 | 0.2
NS(=O)(=O)c1cc(NC(=O)Nc2ccc(F)cc2)c(O)c([N+](=O)[O-])c1 | 0.5
NS(=O)(=O)c1cc(NC(=O)c2ccccc2)c(OC(=O)c2ccccc2)c([N+](=O)[O-])c1 | 0.1
Cc1cc(C)[n+](-c2cc(S(N)(=O)=O)cc([N+](=O)[O-])c2O)c(C)c1 | 0.3
NS(=O)(=O)c1ccc(O)c([N+](=O)[O-])c1 | 1.1

Please state SI (KI1/KI2) CA II/LdcCA for every compound in the list that follows.
1. NS(=O)(=O)c1cc(NC(=O)N[C@@H]2C(O)O[C@@H](CO)[C@H](O)[C@H]2O)c(O)c([N+](=O)[O-])c1 (stereo partly drawn)
2. COc1cccc(NC(=O)Nc2cc(S(N)(=O)=O)cc([N+](=O)[O-])c2O)c1
3. CC(=O)OC[C@@H]1O[C@@H](OC(C)=O)[C@@H](NC(=O)Nc2cc(S(N)(=O)=O)cc([N+](=O)[O-])c2O)[C@H](OC(C)=O)[C@H]1OC(C)=O
4. NS(=O)(=O)c1cc(NC(=O)Nc2ccc(C(F)(F)F)cc2)c(O)c([N+](=O)[O-])c1

1: 0.3; 2: 5.4; 3: 0.5; 4: 0.1

----------
# Procedure text: in vitro
# Stated conditions: mouse, RAW 264.7 macrophages
Give CC50 at 48 h for every item shown.
One number for each entry, in µM.

C[C@@H]1[C@H](O)[C@@H](C)/C=C/C=C/C=C/C=C/C=C/C=C/C=C/[C@H](O[C@@H]2O[C@H](C)[C@@H](O)[C@H](N)[C@@H]2O)C[C@@H]2O[C@](O)(C[C@@H](O)C[C@@H](O)[C@H](O)CC[C@@H](O)C[C@@H](O)CC(=O)O[C@H]1C)C[C@H](O)[C@H]2C(=O)O [Amp, amphotericin B, reference compound] | 1

Please state CC50 at 48 h for every molecule in the list that follows.
1. NS(=O)(=O)c1cc(NC(=O)c2ccc(F)cc2)c(OC(=O)c2ccc(F)cc2)c([N+](=O)[O-])c1
2. NS(=O)(=O)c1cc(NC(=O)Nc2ccc3c(c2)OCO3)c(O)c([N+](=O)[O-])c1
3. O=C(Cn1ccnc1[N+](=O)[O-])NCc1ccccc1 [Bzn, benznidazole, reference compound]
4. NS(=O)(=O)c1ccc(O)c([N+](=O)[O-])c1

180
173
115
97.7

----------
# System: UniProt A4HSV2
# Procedure text: biochemical
# Stated conditions: read-out: KI LdCA
pKi: −log10 of the molar value.
pKi below 6 gives F; pKi at or above it gives T.

Please review the following examples before continuing.
NS(=O)(=O)c1cc(NC(=O)Nc2ccc(C(F)(F)F)cc2)c(O)c([N+](=O)[O-])c1 | F
Cc1cc(C)cc(NC(=O)Nc2cc(S(N)(=O)=O)cc([N+](=O)[O-])c2O)c1 | F

From here, focus on the item given below.
Given the entry "Nc1cc(S(N)(=O)=O)cc([N+](=O)[O-])c1O" , answer whether its pKi meets or surpasses 6. T
